Values were extracted from ChEMBL document CHEMBL1201862.

tested on: MCF7; assay: NCI tumour cell line growth inhibition, 48 h
Calls of active or inactive are those of the source. No stated cut-off is given here; in the data, active = GI50 up to about 1.1 µM and inactive = higher.
Would you mind answering with one of these outcomes? active, inactive

Solved cases (3 shown):
> print(dat)
                                   compound  group.label
1     CC1(C)COC(c2cccc(C(=O)c3ccccc3)c2)=N1     inactive
2  COC(=O)C[C@](O)(CCC(C)(C)O)C(=O)O[C@@H]1C(OC)=C[C@]23CCCN2CCc2cc4c(cc2[C@H]13)OCO4       active
3  CC(NNC(=O)c1cc[n+]([BH2-]C#N)cc1)C(F)(F)F (centres undefined)     inactive

# ---- query compound ----
Could you check what this test reported for CCC(C#N)(c1ccccc1)N(CCc1ccccc1)C(=O)c1ccccc1 (centres undefined) ?
inactive

###

test system: K562; assay: NCI tumour cell line growth inhibition, 48 h
Active and inactive are the calls of the source. Rule as the data show it: active = GI50 up to about 1.1 µM and inactive = higher. Where a SMILES comes first, the peptide text is derived from it.
Can you answer with just one of these options? active, inactive

Recorded results for 4 molecules are shown here.
> print(dat)
                                   molecule  group.label
1  O=c1sc(-c2nc3ccccc3[nH]2)c(/N=C/c2ccccc2)n1-c1ccccc1     inactive
2      COC1=C(N2CC2)C(=O)c2nc3n(c2C1=O)CCC3       active
3  NC(=O)C1CCCN1C(=O)C(N)Cc1ccccc1 (stereo not drawn) (H-Phe-Pro-NH2; configuration not given here)     inactive
4        COc1cc(/C=C/C(=O)OCCc2ccccc2)ccc1O     inactive

Kindly consider the entry below.
# lookup: test call for CSC(C1c2ccccc2N(C)C2=NC(=O)N(C)C(=O)C21Cl)S(=O)(=O)c1ccc(C)cc1 (stereo not given)
inactive

###

test system: RPMI-8226; assay: NCI tumour cell line growth inhibition, 48 h
Activity calls are given as the source filed them. No stated cut-off is given here; in the data, active = GI50 up to about 1.1 µM and inactive = higher.
GI50 by entry:

Example cases with answers are listed next.
compound	GI50
CCOC(=O)c1nnc2c(C(=O)OCC)c3ccccc3n2c1N	1.54 µM (inactive)
CC(NNC(=O)c1cc[n+]([BH2-]C#N)cc1)C(F)(F)F (configuration not stated)	> 100 µM (inactive)
CC(=O)OCC1OC(Sc2nc(-c3ccccc3)c(C#N)c(=O)n2C2OC(COC(C)=O)C(OC(C)=O)C(OC(C)=O)C2OC(C)=O)C(OC(C)=O)C(OC(C)=O)C1OC(C)=O (configuration not stated)	> 100 µM (inactive)
CCc1c(CN)c(CC)c(CNC2=NCCN2)c(CC)c1CNC1=NCCN1	> 100 µM (inactive)
Nc1nc(=O)[nH]c2c1cnn2Cc1ccccc1	> 100 µM (inactive)
CN1Nc2ccccc2CC1=O	> 100 µM (inactive)

Now, please, on to the next compound.
// field: GI50; key: CCCCc1c2c(nc3c1CCCC3O)/C(=C/c1ccccc1)CCC2 (configuration not stated) ; value = 16.8 µM (inactive)

###

test system: BT-549; test: NCI tumour cell line growth inhibition, 48 h
Calls of active or inactive are those of the source. Rule as the data show it: active = GI50 up to about 1.1 µM and inactive = higher.
Examples of compounds with documented GI50 follow.

compound	target-system	readout-kind	reported
COC(=O)c1ccc(Oc2nc3ccccc3nc2-c2cccs2)cc1	BT-549	GI50	45.7 µM (inactive)

Now turn to the next compound.
Summary for this compound, "COc1cc(/C=C/C(=O)OCCc2ccccc2)ccc1O" : GI50 is 14.7 µM (inactive)
